Each recorded value in this set is attributed to patent US20260116868A1.

Recorded EC50 for the following compounds
Tested on: Jurkat cells
Assay: IL-2 secretion assay in Jurkat cells activated with CD3/CD28 T Cell Activator
Type: cell-based
Conditions: Homo sapiens; Jurkat cells, CD3/CD28 T Cell Activator, 24 h, IL-2 AlphaLISA; read-out: IL-2 Secretion (EC50)

Ask: If you can, please state the reported EC50 value of C[C@H]1CCCN(Cc2cc(C(=O)Nc3cc(-c4ccc(F)cc4-c4nncn4C)cc(C4CC4)n3)c(=O)n(CC3CCC3)c2)C1 [Example 62] .
Reply: < 100 nM

Ask: // EC50 lookup, key: Cn1cc(CNC[C@@H]2CCCO2)cc(C(=O)Nc2cc(-c3ccc(Cl)cc3C(=O)N3CC(F)(F)C3)cc(C3CC3)n2)c1=O [Example 107]
Reply: < 100 nM

Ask: If you can, please state the reported EC50 value of Cn1ccnc1-c1cc(C#N)ccc1-c1cc(NC(=O)c2cc(CN3CCC4(CC4)C3)cn(C3CC3)c2=O)nc(C2CC2)c1 [Example 41] .
Reply: 100 to 1000 nM

Ask: # get_value(readout='EC50', item= CO[C@H]1C[C@](c2cccc(NC(=O)c3cc(CN4CCC[C@H](C)C4)cn(C4CC4)c3=O)c2)(c2nncn2C)C1 [Example 81] )
Reply: 100 to 1000 nM

Ask: Any idea what EC50 was measured for O=C(Nc1cc(-c2ccc(Cl)cc2C(=O)N2CC(F)(F)C2)cc(C2CC2)n1)c1cc(CNC[C@@H]2CCCO2)cn(C2CC2)c1=O [Example 90] ?
Reply: < 100 nM

Ask: Requested field: EC50. Item: C[C@H]1CCCN(Cc2cc(C(=O)Nc3cc(-c4ccc(C#N)cc4-c4nc(C(F)(F)F)cn4C)cc(C4CC4)n3)c(=O)n(C3CC3)c2)C1 [Example 47]
Reply: 1000 to 5000 nM
